Test system: OVCAR-5 ovarian
Measurement description: NCI-60 one-dose screen, 48 h
Test parameters: 10 µM unless noted
About 83,000 compounds went through this panel and 20% of them were active in at least one assay; those are over-represented in the sample as a whole. Activity calls are given as the source filed them. How the source made its calls: active means growth percent below 10; inactive means the rest.
Answer with one of the outcomes t (active), f (inactive)

Consider the following illustrative entries.
Cc1ccc(-c2cc(-c3ccccc3C)[nH]c(=O)c2C#N)s1 : f
NC[C@H](O)c1ccc(O)c(O)c1 : f
Cc1ccc(/C=C/c2c(C(=O)/C=C/c3ccc(C(F)(F)F)cc3)c(C)nc3ccccc23)cc1 : t

I would be grateful if you could indicate the recorded call for CC1=NOC(=O)/C1=C\c1ccc(O)cc1 . f

I would be grateful if you could indicate the recorded call for CC1SC(c2ccc(OCc3ccccc3)cc2)N(NC(=O)C(O)(c2ccccc2)c2ccccc2)C1=O (stereo not drawn) . f

I would be grateful if you could indicate the recorded call for CCN1C(=O)N(CC)C2Nn3c(s/c(=C\c4cccc([N+](=O)[O-])c4)c3=O)=NC21 (stereo not drawn) . f

I would be grateful if you could indicate the recorded call for Cc1ccccc1NC(=O)N/C(N)=N/c1nc(C)c(C)s1 . f

I would be grateful if you could indicate the recorded call for Cc1ccc(C(=O)CSc2nc(-c3ccc(Br)cc3)c(C#N)c(=O)[nH]2)cc1 . f

I would be grateful if you could indicate the recorded call for C[C@H](NC(=O)[C@@H]1CSSC[C@@H](NC(=O)c2nc3ccccc3cc2O)C(=O)NCC(=O)N1C)c1ccccc1 . f

I would be grateful if you could indicate the recorded call for C=C(C)[C@@H]1CC[C@]2(C(=O)NC3CCCCC3)CC[C@]3(C)[C@H](CC[C@@H]4[C@@]5(C)CCCNC(C)(C)[C@@H]5CC[C@]43C)[C@@H]12 . f

I would be grateful if you could indicate the recorded call for COc1ccc(C(=O)COc2ccc(/C=C3\Oc4ccccc4C3=O)cc2)cc1 . f

I would be grateful if you could indicate the recorded call for O=S(=O)(NCCCNc1cc(-c2c(-c3cccc(O)c3)nc3sccn23)ccn1)c1cccc(Cl)c1 . f

I would be grateful if you could indicate the recorded call for C=C1C(=O)O[C@H]2[C@H]1CC/C(CNC(=O)/C=C/c1ccc(Cl)cc1Cl)=C\CC[C@@]1(C)O[C@@H]21 . t

I would be grateful if you could indicate the recorded call for N#Cc1c(-c2cccc(Cl)c2)cc(-c2cccc(F)c2)[nH]c1=O . f

I would be grateful if you could indicate the recorded call for COC(=O)[C@]12CC[C@@H](C)[C@H](C)[C@@H]1C1=CC[C@@H]3[C@@]4(C)C(C=O)=C[C@@](C)(COC(=O)/C=C/c5ccccc5)[C@@H]4[C@H](O)C[C@@]3(C)[C@]1(C)CC2 . t
